Organism: Rattus norvegicus
Assay: Open TG-GATES - Regimen: Daily Repeat
Type: toxicity, organism-based, Sprague-Dawley
Design: regimen Daily Repeat, gender Male, age 6 weeks
Conditions: in vivo, po, 0 mg/kg, 72 h, tissue Plasma, route gavage, dose level Control, time 3 day
// returns 0 unless ALT is strictly below 40 IU/L, in which case 1

Check if ALT falls below 40 IU/L for O=C1NC(=O)C(c2ccccc2)(c2ccccc2)N1 [PHENYTOIN] . 0

Check if ALT falls below 40 IU/L for C=CCO [ALLYL ALCOHOL] . 1

Check if ALT falls below 40 IU/L for COc1ccc(Cl)cc1C(=O)NCCc1ccc(S(=O)(=O)NC(=O)NC2CCCCC2)cc1 [GLYBURIDE] . 0

Check if ALT falls below 40 IU/L for CS(=O)(=O)Nc1ccc([N+](=O)[O-])cc1Oc1ccccc1 [NIMESULIDE] . 1

Check if ALT falls below 40 IU/L for COc1ccc(O)c(C(C)(C)C)c1.COc1ccc(O)cc1C(C)(C)C [BUTYLATED HYDROXYANISOLE] . 1

Attention now shifts to the item below.
Check if ALT falls below 40 IU/L for Cn1c(=O)c2c(ncn2C)n(C)c1=O [CAFFEINE] . 0

====

Organism: Rattus norvegicus
Assay: Open TG-GATES - Regimen: Single
Type: toxicity, organism-based, Sprague-Dawley
Design: regimen Single, gender Male, age 6 weeks
Settings: in vivo, po, 0 mg/kg, 3 h, tissue Blood, route gavage, dose level Control
value type: Lym (%)
Could you give me the number in %? Just the number is fine.

Some compounds with recorded Lym:
// fetch Lym given entry "Cc1cnc(NC(=O)C2=C(O)c3ccccc3S(=O)(=O)N2C)s1" 78.6

// fetch Lym given entry "C=CCO" 73.8

// fetch Lym given entry "Cc1cccc(Nc2cc(Cl)nc(SCC(=O)O)n2)c1C" 77.6

// fetch Lym given entry COc1ccc(Cl)cc1C(=O)NCCc1ccc(S(=O)(=O)NC(=O)NC2CCCCC2)cc1 [GLYBURIDE] 70.4

***
// fetch Lym given entry "O=C1CN(/N=C/c2ccc(-c3ccc([N+](=O)[O-])cc3)o2)C(O)=N1" 82.4

// fetch Lym given entry "Cn1cnc([N+](=O)[O-])c1Sc1ncnc2nc[nH]c12" 78.6

// fetch Lym given entry S=C=Nc1cccc2ccccc12 [1-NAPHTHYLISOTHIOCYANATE] 78

// fetch Lym given entry COc1ccc(O)c(C(C)(C)C)c1.COc1ccc(O)cc1C(C)(C)C [BUTYLATED HYDROXYANISOLE] 74

// fetch Lym given entry "O=C1NC(=O)C(c2ccccc2)(c2ccccc2)N1" 78.6

// fetch Lym given entry CNCCC(Oc1ccc(C(F)(F)F)cc1)c1ccccc1.Cl (stereo unspecified) [FLUOXETINE HYDROCHLORIDE] 72.6

// fetch Lym given entry CS(=O)(=O)Nc1ccc([N+](=O)[O-])cc1Oc1ccccc1 [NIMESULIDE] 77

====

Species: Rattus norvegicus
Test: Open TG-GATES - Regimen: Single
Format: toxicity, organism-based, Sprague-Dawley
Parameters: regimen Single, gender Male, age 6 weeks
Conditions: in vivo, po, 0 mg/kg, 3 h, tissue Blood, route gavage, dose level Control
value type: MCHC (%)
Could you give me the number in %? Just the number is fine.

Some compounds with recorded MCHC:
// fetch MCHC given entry "Cc1cnc(NC(=O)C2=C(O)c3ccccc3S(=O)(=O)N2C)s1" 34.1

// fetch MCHC given entry "C=CCO" 34.3

// fetch MCHC given entry "Cc1cccc(Nc2cc(Cl)nc(SCC(=O)O)n2)c1C" 33.9

// fetch MCHC given entry CNCCC(Oc1ccc(C(F)(F)F)cc1)c1ccccc1.Cl (stereo not given) [FLUOXETINE HYDROCHLORIDE] 32.1

***
// fetch MCHC given entry COc1ccc(Cl)cc1C(=O)NCCc1ccc(S(=O)(=O)NC(=O)NC2CCCCC2)cc1 [GLYBURIDE] 32.4
